Test: Cell Viability - LYMP1-003 - Assay at 24 hr (AID 963)
Settings: LYMP1-003 lymphoblastoid cell viability; series mostly up to 92.2 µM
Calls of active or inactive are those of the source. Calls come from the whole dose curve; as a rule, active = well fitted cell-killing curve with a large enough effect; inconclusive = small, poorly fitted or top-dose-only effect; inactive = flat fitted curve, though single readings scatter.
Log the outcome using a class from active, inactive

-- ask Which result was noted for this compound in the test: `CC(=O)[O-].CC(=O)[O-].O.O.[Cd+2]`
-- reply inactive

-- ask For `CCCCCCCCn1sccc1=O` , which call appears in the assay record?
-- reply active

-- ask Status in this test for CC(C)CC(C)Nc1ccc(Nc2ccccc2)cc1 (stereo unspecified) ?
-- reply active

-- ask Fill in: this test's call for `c1ccc2cc3c(cc2c1)-c1cccc2cccc-3c12` is ___
-- reply inactive

-- ask Recorded call for `C(=NC1CCCCC1)=NC1CCCCC1` ?
-- reply inactive

-- ask Tell me the recorded outcome of this test for `[CH3][Hg][Cl]` .
-- reply active

* * *

Exercise: state measured caspase-3 activation for each of the compounds provided.
Assay: Cellular Toxicity (caspase-3) H-4-II-E (AID 663);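 note: cells exposed to compound for 16 hr before readout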
Details: H-4-II-E rat hepatoma, scaled: DMSO 0%, 100 µM tamoxifen 100%; at 92.2 µM (top of the series)
Inconclusive results are not listed.
# number only, unit % dropped from output

-- ask Please report caspase-3 activation for the following compound: `CCCCCCCCn1sccc1=O`
-- reply -3.17

-- ask // fetch caspase-3 activation given entry O=C(O)C1C(C(=O)O)C2(Cl)C(Cl)=C(Cl)C1(Cl)C2(Cl)Cl (centres undefined)
-- reply -0.161

-- ask Fill in caspase-3 activation for record `C[C@@H]1CC[C@@]2(OC1)O[C@H]1[C@@H](O)[C@H]3[C@@H]4CC[C@H]5C[C@@H](O[C@@H]6O[C@H](CO)[C@H](O[C@@H]7O[C@H](CO)[C@@H](O)[C@H](O[C@@H]8OC[C@@H](O)[C@H](O)[C@H]8O)[C@H]7O[C@@H]7O[C@H](CO)[C@@H](O)[C@H](O[C@@H]8O[C@H](CO)[C@@H](O)[C@H](O)[C@H]8O)[C@H]7O)[C@H](O)[C@H]6O)[C@H](O)C[C@]5(C)[C@H]4CC[C@]3(C)[C@H]1[C@@H]2C`
-- reply -3.54

-- ask Hello, please tell me recorded caspase-3 activation for this one: `C(=NC1CCCCC1)=NC1CCCCC1`
-- reply 91.9

-- ask Identify caspase-3 activation associated with the compound `Oc1c(Br)c(Br)c(Br)c(Br)c1Br`
-- reply 10.1

-- ask // Input: `Clc1ccc(C(c2ccc(Cl)cc2)C(Cl)Cl)cc1` . Output its caspase-3 activation only.
-- reply 87.3

-- ask Complete the entry with caspase-3 activation for `O=[N+]([O-])c1cc(C(F)(F)F)cc([N+](=O)[O-])c1Cl`
-- reply 24.4

-- ask Given the compound `Nc1ccccc1C(=O)OCCc1ccccc1` , write its reported caspase-3 activation.
-- reply -2.95

-- ask Give a short answer stating reported caspase-3 activation for `N#CC(Cl)Cl` .
-- reply 0.178

* * *

Molecular target: Estrogen receptor (Homo sapiens) (UniProt P03372)
Sequence (P03372 whole entry, looked up): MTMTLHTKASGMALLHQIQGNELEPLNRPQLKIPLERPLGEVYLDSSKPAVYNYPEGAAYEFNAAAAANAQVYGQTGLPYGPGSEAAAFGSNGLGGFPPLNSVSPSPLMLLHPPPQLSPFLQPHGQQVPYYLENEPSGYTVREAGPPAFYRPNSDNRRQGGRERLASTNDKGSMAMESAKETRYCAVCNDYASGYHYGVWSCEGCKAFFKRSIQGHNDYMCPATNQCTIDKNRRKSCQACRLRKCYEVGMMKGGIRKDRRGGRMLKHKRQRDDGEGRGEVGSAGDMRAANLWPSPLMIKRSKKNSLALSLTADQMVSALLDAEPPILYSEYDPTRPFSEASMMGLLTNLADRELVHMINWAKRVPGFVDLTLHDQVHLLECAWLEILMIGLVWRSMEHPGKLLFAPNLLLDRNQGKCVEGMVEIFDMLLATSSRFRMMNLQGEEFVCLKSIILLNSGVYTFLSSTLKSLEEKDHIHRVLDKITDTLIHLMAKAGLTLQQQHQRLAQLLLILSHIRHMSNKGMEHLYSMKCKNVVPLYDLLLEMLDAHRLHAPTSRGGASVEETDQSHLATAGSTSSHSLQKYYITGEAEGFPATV
Assay: qHTS assay for small molecule agonists of estrogen receptor alpha signaling (AID 588514); note: nearly all actives have a fitted effect of over 70% in size
Details: ER-alpha-UAS-bla HEK293, beta-lactamase ratio, 18 h; series mostly up to 76.8 µM
Results filed as inconclusive are left out. Active and inactive are the calls of the source. Calls come from the whole dose curve.
# valid calls are active, inactive; nothing else

-- ask What is the recorded call for this compound in the test? `C#CCN1C(=O)COc2cc(F)c(N3C(=O)C4=C(CCCC4)C3=O)cc21`
-- reply inactive

-- ask What did the test return for `Clc1ccc([C@]2(Cn3cncn3)C[C@H](Br)CO2)c(Cl)c1` ?
-- reply inactive

-- ask Identify the outcome logged in this assay for the compound shown: CC(C)[C@@H](Nc1ccc(C(F)(F)F)cc1Cl)C(=O)OC(C#N)c1cccc(Oc2ccccc2)c1 (stereo not given in full)
-- reply inactive

-- ask In this assay, the call recorded for `NS(=O)(=O)C(F)(F)C(F)(F)C(F)(F)C(F)(F)C(F)(F)C(F)(F)C(F)(F)C(F)(F)F` was what?
-- reply inactive

-- ask Entry CCOP(=O)(OCC)OC(Cl)C(Cl)(Cl)Cl (stereo not given) : call = ?
-- reply inactive

-- ask Write down the call the test reported for this compound. Item: `CC1(C)CON(Cc2ccccc2Cl)C1=O`
-- reply inactive

-- ask Recorded test call requested for `CCCCOCCOC(C)=O`
-- reply inactive

-- ask Per the assay record, what outcome was assigned to `CCOP(=S)(OCC)SCCl` ?
-- reply inactive

-- ask Per the records of this test, what outcome belongs to `CCOP(=O)(OCC)SCSP(=S)(OCC)OCC` ?
-- reply inactive

-- ask What call does the record list for `CS/C(C)=N/OC(=O)N(C)SN(C)C(=O)O/N=C(\C)SC` ?
-- reply inactive

-- ask Please share the test call associated with `COc1nc(C)nc(NC(=O)NS(=O)(=O)c2ccccc2CCC(F)(F)F)n1` .
-- reply inactive

-- ask # lookup: test call for O=C(O)C1C(C(=O)O)C2(Cl)C(Cl)=C(Cl)C1(Cl)C2(Cl)Cl (stereo not given)
-- reply inactive

-- ask For this compound, state the assay outcome: `O=S(=O)(c1ccc(O)cc1)c1ccc(O)cc1`
-- reply active

-- ask What is the recorded call for this compound in the test? `COP(=O)(OC)SCn1c(=O)oc2cc(Cl)cnc21`
-- reply inactive

-- ask I'd appreciate the recorded outcome for `CS(=O)(=O)c1cc(C(F)(F)F)ccc1C(=O)c1cnoc1C1CC1` from this test.
-- reply inactive

-- ask Record request — test call for `O=C(Nc1ccccc1)Nc1cnns1`
-- reply inactive

-- ask Query: recorded result category for CC(C)(C)C(O)C(Oc1ccc(-c2ccccc2)cc1)n1cncn1 (stereo not given) in this test
-- reply inactive

-- ask Give the logged outcome of this assay for the following compound: `COP(=S)(OC)Oc1ccc([N+](=O)[O-])c(C)c1`
-- reply inactive

-- ask # outcome recorded in this test, key = CCCCC(CC)CO[N+](=O)[O-] (stereo not given)
-- reply inactive

-- ask Hey, what did the test say about `Clc1ccc(C(Cl)(Cl)Cl)cc1` ?
-- reply inactive

-- ask What did the test return for `CCNc1nc(NC(C)(C)C)nc(SC)n1` ?
-- reply inactive

-- ask Assay result, entry CCC(C)(NC(=O)c1cc(Cl)c(C)c(Cl)c1)C(=O)CCl (stereo not given) — outcome?
-- reply inactive

-- ask // outcome(item) with item = `O=C(O)c1nc(Cl)ccc1Cl`
-- reply inactive

-- ask Test call for this compound, please: `COP(=O)(OC)O/C(=C\Cl)c1cc(Cl)c(Cl)cc1Cl`
-- reply inactive

-- ask Can you look up the reported call for Cc1cnc(C2=NC(C)(C(C)C)C(=O)N2)c(C(=O)O)c1 (stereo not given) for me?
-- reply inactive

-- ask Hi, sorry to bother you, what did the test record for CCCC1COC(Cn2cncn2)(c2ccc(Cl)cc2Cl)O1 (stereo not given) ?
-- reply inactive

-- ask Test call for this compound, please: `COc1cnc(OC)n2nc(NS(=O)(=O)c3c(OCC(F)F)cccc3C(F)(F)F)nc12`
-- reply inactive

-- ask Any idea what this test logged for `O=[N+]([O-])c1ccc(Oc2ccc(C(F)(F)F)cc2[N+](=O)[O-])cc1` ?
-- reply inactive

-- ask Give the logged outcome of this assay for the following compound: `CC(C)(C#N)N=NC(C)(C)C#N`
-- reply inactive

-- ask Dear all, I need the recorded test outcome for Cc1cc(Cl)ccc1OC(C)C(=O)O (stereo not given) , thank you.
-- reply inactive

-- ask What call does the record list for CC1CCCCC1NC(=O)Nc1ccccc1 (stereo not given) ?
-- reply inactive

-- ask Outcome? CC(C)C1(C)N=C(c2nc3ccccc3cc2C(=O)O)NC1=O (stereo not given)
-- reply inactive

-- ask How did this test come out for `CCOP(=S)(OCC)SCn1c(=O)oc2cc(Cl)ccc21` ?
-- reply inactive

-- ask Hi team, can someone confirm the assay call for `CC(C)(C)N(NC(=O)c1ccc(Cl)cc1)C(=O)c1ccccc1` ?
-- reply inactive

-- ask Dear all, I need the recorded test outcome for CCC(C)n1c(=O)[nH]c(C)c(Br)c1=O (stereo not given) , thank you.
-- reply inactive

-- ask Please let me know the test result on file for `CNC(=O)Oc1cc(C)cc(C(C)C)c1` .
-- reply inactive

-- ask Tell me the recorded outcome of this test for CCNP(=S)(OC)O/C(C)=C/C(=O)OC(C)C (stereo not given) .
-- reply inactive

-- ask What is the recorded call for this compound in the test? `O=S(=O)(c1ccc(Cl)cc1)c1cc(Cl)c(Cl)cc1Cl`
-- reply inactive

-- ask // return assay outcome for `CN/C(=N\[N+](=O)[O-])NCc1cnc(Cl)s1`
-- reply inactive

-- ask Called result for `C/C=C(\C)C(=O)O[C@H]1C[C@@H](OC(C)=O)[C@@]2(C(=O)OC)CO[C@H]3[C@@H](O)[C@@](C)([C@]45O[C@@]4(C)[C@H]4C[C@@H]5O[C@@H]5OC=C[C@@]54O)[C@H]4[C@]1(CO[C@]4(O)C(=O)OC)[C@@H]32`
-- reply inactive

-- ask Lab log entry: `C=CC(=O)NCO` — outcome as called in the assay?
-- reply inactive

-- ask Per the assay record, what outcome was assigned to `CCSCCSP(=O)(OC)OC` ?
-- reply inactive

-- ask Kindly provide the recorded test outcome for the following compound: `O=[N+]([O-])c1cc(C(F)(F)F)cc([N+](=O)[O-])c1Cl`
-- reply inactive

-- ask What outcome does the record of this test show for `CN(C)c1ccc(N=O)cc1` ?
-- reply inactive

-- ask How did this test come out for `CO/N=C(/C(=O)OC)c1ccccc1COc1ccccc1C` ?
-- reply inactive

-- ask Dear all, I need the recorded test outcome for CCCN(CC)CC1COC2(CCC(C(C)(C)C)CC2)O1 (stereo not given) , thank you.
-- reply inactive

-- ask Assay outcome for `CCOP(=S)(OCC)SCSP(=S)(OCC)OCC` : what was it?
-- reply inactive

-- ask Per the records of this test, what outcome belongs to `Nc1c(Cl)c(F)nc(OCC(=O)O)c1Cl` ?
-- reply inactive

-- ask Dear all, I need the recorded test outcome for `O=C1NCCN1Cc1ccc(Cl)nc1` , thank you.
-- reply inactive

-- ask GET /call?item= CCN(CC)C(=O)C(C)Oc1cccc2ccccc12 (stereo not given) returns the recorded outcome of this test.
-- reply inactive

Provenance of the data: PubChem BioAssay (NCATS)
